# TEST: Half life in monkey at 1 mg/kg, iv as 30 mins infusion
# Assay type: ADME, organism-based, Macaca mulatta
# Parameters: dose 1 mg/kg, route intravenous
# EXPERIMENTAL_SETUP: rhesus monkey, in vivo
PROPERTY_NAME: half-life (h)
Your answer is read as h, so omit the unit and give the number.

Query block: State the recorded half-life for this entry: `c1cc2oc(-c3ccc(-c4ncc([C@@H]5CCCN5)[nH]4)cc3)cc2cc1-c1cnc([C@@H]2CCCN2)[nH]1`
Result block: 3

Query block: State the recorded half-life for this entry: `COC(=O)N[C@@H](C(=O)N1CCC[C@H]1c1ncc(-c2ccc3c(c2)O[C@@H](c2ccccc2)n2c-3cc3cc(-c4cnc([C@@H]5CCCN5C(=O)[C@H](NC(=O)OC)C(C)C)[nH]4)ccc32)[nH]1)C(C)C`
Result block: 16

----------
# TEST: Cytotoxicity against Dengue virus infected african green monkey Vero 76 cells after 3 days
# Type: cell-based
# EXPERIMENTAL_SETUP: chlorocebus sabaeus, Vero 76 cells infected with Dengue virus
PROPERTY_NAME: CC50 at 72 h (µM)
Your answer is read as µM, so omit the unit and give the number.

Query block: State the recorded CC50 at 72 h for this entry: COC(=O)N[C@H](C(=O)N1CCCC1c1ncc(C#CC#Cc2ccc(-c3cnc(C4CCCN4C(=O)[C@@H](NC(=O)OC)C(C)C)[nH]3)cc2)[nH]1)C(C)C.Cl (single isomer, unassigned; 13a)
Result block: 28.4

----------
# TEST: Oral bioavailability in beagle dog at 2.3 mg/kg
# Format: ADME, organism-based, Canis lupus familiaris
# EXPERIMENTAL_SETUP: in vivo
PROPERTY_NAME: bioavailability (%)
Your answer is read as %, so omit the unit and give the number.

Query block: State the recorded bioavailability for this entry: `COC(=O)N[C@H](C(=O)N1CCC[C@H]1c1ncc(-c2ccc(-c3ccc(-c4cnc([C@@H]5CCCN5C(=O)[C@@H](NC(=O)OC)C(C)C)[nH]4)cc3)cc2)[nH]1)C(C)C`
Result block: 58.5

----------
# TEST: Metabolic stability in human liver microsomes assessed as residual compound at 1 uM after 60 mins
# Format: ADME
# EXPERIMENTAL_SETUP: read-out: Stability
PROPERTY_NAME: remaining at 1 h, 1 µM (%)
Your answer is read as %, so omit the unit and give the number.

Query block: State the recorded remaining at 1 h, 1 µM for this entry: COC(=O)N[C@H](C(=O)N1CCCC1c1ncc(C#CC#Cc2ccc(-c3cnc(C4CCCN4C(=O)[C@@H](NC(=O)OC)C(C)C)[nH]3)cc2)[nH]1)C(C)C.Cl (single isomer, unassigned; 13a)
Result block: 81.5

----------
# TEST: Half life in Sprague-Dawley rat at 11.2 mg/kg, po
# Format: ADME, organism-based
# Design: dose 11.2 mg/kg, route oral
# EXPERIMENTAL_SETUP: in vivo
PROPERTY_NAME: half-life (h)
Your answer is read as h, so omit the unit and give the number.

Query block: State the recorded half-life for this entry: COC(=O)N[C@H](C(=O)N1CCCC1c1ncc(C#CC#Cc2ccc(-c3cnc(C4CCCN4C(=O)[C@@H](NC(=O)OC)C(C)C)[nH]3)cc2)[nH]1)C(C)C.Cl (single isomer, unassigned; 13a)
Result block: 3

----------
# Tested on: Dengue virus
# TEST: Antiviral activity against Dengue virus infected in african green monkey Vero-76 cells after 3 days
# Assay type: functional, organism-based
# EXPERIMENTAL_SETUP: Vero 76, 72 h
pEC50: −log10 of the molar value.
PROPERTY_NAME: pEC50

Query block: State the recorded pEC50 for this entry: COC(=O)N[C@H](C(=O)N1CCCC1c1ncc(C#CC#Cc2ccc(-c3cnc(C4CCCN4C(=O)[C@@H](NC(=O)OC)C(C)C)[nH]3)cc2)[nH]1)C(C)C.Cl (single isomer, unassigned; 13a)
Result block: < 4.55

----------
# TEST: Solubility of the compound in water at pH 7.4
# Assay type: physicochemical
PROPERTY_NAME: solubility
Quote the value and follow it with the unit of measurement.

Query block: State the recorded solubility for this entry: COC(=O)N[C@H](C(=O)N1CCCC1c1ncc(C#CC#Cc2ccc(-c3cnc(C4CCCN4C(=O)[C@@H](NC(=O)OC)C(C)C)[nH]3)cc2)[nH]1)C(C)C.Cl (single isomer, unassigned; 13a)
Result block: 433 µM

----------
# TEST: Metabolic stability in rat liver microsomes assessed as residual compound at 1 uM after 60 mins
# Type: ADME
# EXPERIMENTAL_SETUP: read-out: Stability
PROPERTY_NAME: remaining at 1 h, 1 µM

Query block: State the recorded remaining at 1 h, 1 µM for this entry: COC(=O)N[C@H](C(=O)N1CCCC1c1ncc(C#CC#Cc2ccc(-c3cnc(C4CCCN4C(=O)[C@@H](NC(=O)OC)C(C)C)[nH]3)cc2)[nH]1)C(C)C.Cl (single isomer, unassigned; 13a)
Result block: 70.8%

----------
pIC50: −log10 of the molar value.
PROPERTY_NAME: pIC50

Query block: I'm curious: which pIC50 was measured for COC(=O)N[C@H](C(=O)N1CCCC1c1ncc(C#CC#Cc2ccc(-c3cnc(C4CCCN4C(=O)[C@@H](NC(=O)OC)C(C)C)[nH]3)cc2)[nH]1)C(C)C.Cl (single isomer, unassigned; 13a) tested on Cytochrome P450 2D6 (Homo sapiens, UniProt P10635)?
Result block: < 5.00

----------
# TEST: Half life in beagle dog at 10 mg/kg, po
# Assay type: ADME, organism-based, Canis lupus familiaris
# Parameters: dose 10 mg/kg, route oral
# EXPERIMENTAL_SETUP: in vivo
PROPERTY_NAME: half-life (min)
Your answer is read as min, so omit the unit and give the number.

Query block: State the recorded half-life for this entry: COC(=O)N[C@H](C(=O)N1CCCC1c1ncc(C#CC#Cc2ccc(-c3cnc(C4CCCN4C(=O)[C@@H](NC(=O)OC)C(C)C)[nH]3)cc2)[nH]1)C(C)C.Cl (single isomer, unassigned; 13a)
Result block: 270

----------
# TEST: Cmax in monkey at 2.5 mg/kg, po
# Type: ADME, organism-based, Macaca mulatta
# Set-up: dose 2.5 mg/kg, route oral
# EXPERIMENTAL_SETUP: rhesus monkey, in vivo
PROPERTY_NAME: Cmax (nM)
Your answer is read as nM, so omit the unit and give the number.

Query block: State the recorded Cmax for this entry: `COC(=O)N[C@@H](C(=O)N1CCC[C@H]1C(=O)Nc1ccc([C@H]2CC[C@@H](c3ccc(NC(=O)[C@@H]4CCCN4C(=O)[C@H](NC(=O)OC)C(C)C)cc3)N2c2ccc(C(C)(C)C)cc2)cc1)C(C)C`
Result block: 320

----------
# TEST: Cmax in monkey at 3 mg/kg, po
# Assay type: ADME, organism-based, Macaca mulatta
# Design: dose 3 mg/kg, route oral
# EXPERIMENTAL_SETUP: rhesus monkey, in vivo
PROPERTY_NAME: Cmax

Query block: State the recorded Cmax for this entry: `COC(=O)N[C@H](C(=O)N1CCC[C@H]1c1ncc(-c2ccc(-c3ccc(-c4cnc([C@@H]5CCCN5C(=O)[C@@H](NC(=O)OC)C(C)C)[nH]4)cc3)cc2)[nH]1)C(C)C`
Result block: 500 nM

----------
# TEST: Solubility of the compound in alcohol
# Format: physicochemical
PROPERTY_NAME: solubility

Query block: State the recorded solubility for this entry: COC(=O)N[C@H](C(=O)N1CCCC1c1ncc(C#CC#Cc2ccc(-c3cnc(C4CCCN4C(=O)[C@@H](NC(=O)OC)C(C)C)[nH]3)cc2)[nH]1)C(C)C.Cl (single isomer, unassigned; 13a)
Result block: ≥ 10 µM

----------
# TEST: Half life in monkey at 2.5 mg/kg, po
# Format: ADME, organism-based, Macaca mulatta
# Design: dose 2.5 mg/kg, route oral
# EXPERIMENTAL_SETUP: rhesus monkey, in vivo
PROPERTY_NAME: half-life (h)
Your answer is read as h, so omit the unit and give the number.

Query block: State the recorded half-life for this entry: `COC(=O)N[C@@H](C(=O)N1CCC[C@H]1C(=O)Nc1ccc([C@H]2CC[C@@H](c3ccc(NC(=O)[C@@H]4CCCN4C(=O)[C@H](NC(=O)OC)C(C)C)cc3)N2c2ccc(C(C)(C)C)cc2)cc1)C(C)C`
Result block: 5

----------
For each of the molecules below, state its logP.
# TEST: Lipophilicity, log P of the compound
# Format: physicochemical
# EXPERIMENTAL_SETUP: octanol/water

Query block: State the recorded logP for this entry: COC(=O)N[C@H](C(=O)N1CCCC1c1ncc(C#CC#Cc2ccc(-c3cnc(C4CCCN4C(=O)[C@@H](NC(=O)OC)C(C)C)[nH]3)cc2)[nH]1)C(C)C.Cl (single isomer, unassigned; 13a)
Result block: 4.99

Query block: State the recorded logP for this entry: `COC(=O)N[C@@H](C(=O)N1CCC[C@H]1c1ncc(-c2ccc3c(c2)O[C@@H](c2ccccc2)n2c-3cc3cc(-c4cnc([C@@H]5CCCN5C(=O)[C@H](NC(=O)OC)C(C)C)[nH]4)ccc32)[nH]1)C(C)C`
Result block: 8.61

Query block: State the recorded logP for this entry: `COC(=O)N[C@H](C(=O)N1CCC[C@H]1c1ncc(-c2ccc(-c3ccc(-c4cnc([C@@H]5CCCN5C(=O)[C@@H](NC(=O)OC)C(C)C)[nH]4)cc3)cc2)[nH]1)C(C)C`
Result block: 6.33
